Hey, just so you know, these numbers are from PubChem BioAssay (EPA / NIEHS).

read-out: E-selectin (Homo sapiens); experiment: BSK_LPS_Eselectin: BioMAP Diversity Plus: LPS Assay for Eselectin Biomarker Activity (AID 2283077); conditions: primary human HUVEC with PBMC; actives raise or lower the signal
The source made the active and inactive calls. How the source made its calls: active means hit-call score of the fitted dose curve at least 0.9, where 1 is the maximum; inactive means score below 0.9.
// allowed return values: active, inactive

Answered cases to consult:
CCCCCCCCCCCCCCCC(=O)OC/C=C(C)/C=C/C=C(C)/C=C/C1=C(C)CCCC1(C)C	inactive
CCCCCCC(CO)CCCC (configuration not stated)	inactive
CC(=O)c1c(C)c([N+](=O)[O-])c(C(C)(C)C)c([N+](=O)[O-])c1C	inactive
CSCCC=O	inactive
CN(C)C(=S)SC(=S)N(C)C	inactive

Returns: the outcome recorded for c1ccc2cc(Nc3ccc(Nc4ccc5ccccc5c4)cc3)ccc2c1 in this assay.
inactive

Dear colleague, could you share the recorded outcome for Clc1cc(Cl)c(-c2c(Cl)c(Cl)cc(Cl)c2Cl)cc1Cl when you have a moment?
active

----------
test: ATG_CMV_CIS: Attagene CIS-FACTORIAL HepG2 Assay for human CMV (Internal Marker) (AID 2282928); conditions: HepG2 CMV promoter reporter, transcription factor profiling; actives raise or lower the signal;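 further: endpoint acts as a background internal control marker rather than a target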
The source made the active and inactive calls. The calls were made as follows: active = hit-call score of the fitted dose curve at least 0.9, where 1 is the maximum; inactive = score below 0.9.
Form entry, call: pick from t for active, f for inactive

See these solved cases before continuing.
CCOC(=O)COC(=O)c1cc(Oc2ccc(C(F)(F)F)cc2Cl)ccc1[N+](=O)[O-]	f
C=CC(=O)OCCC#N	t

Each compound tested received a call. Report the one for CC(C)=CCCC(C)CCOC=O (configuration not stated) .
f

Hi team, can someone confirm the assay call for IC(I)I ?
f

Can you look up the reported call for Cc1ccc2c(c1)C(=O)OC2=O for me?
f

State the result this test recorded for CC/C=C\CC/C=C/CO .
f

----------
biological target: human Retinoic Acid Receptor beta (RARb), RARB (gene 5915) (UniProt P10826); assay: ATG_RARb_TRANS: Attagene TRANS-FACTORIAL HepG2 Assay for human Retinoic Acid Receptor beta (AID 2283004)
Sequence (P10826 whole entry, looked up): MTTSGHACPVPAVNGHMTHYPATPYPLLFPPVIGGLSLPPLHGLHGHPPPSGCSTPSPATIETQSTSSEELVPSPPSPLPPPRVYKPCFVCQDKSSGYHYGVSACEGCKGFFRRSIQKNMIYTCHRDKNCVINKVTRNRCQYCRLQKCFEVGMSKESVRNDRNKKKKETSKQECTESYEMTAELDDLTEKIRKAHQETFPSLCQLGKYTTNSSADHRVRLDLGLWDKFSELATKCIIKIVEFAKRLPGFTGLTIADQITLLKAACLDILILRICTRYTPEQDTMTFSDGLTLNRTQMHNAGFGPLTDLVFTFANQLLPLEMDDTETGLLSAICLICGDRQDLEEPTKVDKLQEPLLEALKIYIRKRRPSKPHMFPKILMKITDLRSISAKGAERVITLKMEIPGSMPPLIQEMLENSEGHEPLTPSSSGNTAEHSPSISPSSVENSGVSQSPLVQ
Records with an inconclusive call do not appear. The source made the active and inactive calls. The calls were made as follows: active = hit-call score of the fitted dose curve at least 0.9, where 1 is the maximum; inconclusive = response in the unintended direction; inactive = score below 0.9.
Property measured: outcome

Illustrative cases are given below, each with its answer.
CN1CCOCC1	inactive
CC1(C)COCN1	inactive
CCN(CCN)c1cccc(C)c1	inactive
CCOC(=O)CN	inactive
CCOc1ccc(N=Nc2ccc(C=Cc3ccc(N=Nc4ccc(OCC)cc4)cc3S(=O)(=O)O)c(S(=O)(=O)O)c2)cc1	inactive

Briefly, outcome measured for C=CC(C)C#N (configuration not stated) : inactive

Form: compound = CC1=C(Br)C(=O)C(Br)=C/C1=C(/c1ccccc1S(=O)(=O)O)c1cc(Br)c(O)c(Br)c1C ; outcome = inactive

Data point: CC1=NN(c2ccc(S(=O)(=O)O)cc2)C(=O)C1 ; outcome = inactive

O=[N+]([O-])c1ccc(O)cc1C(F)(F)F yielded outcome of inactive

For this compound ( CC(=O)O[C@H]1C[C@@H]2CC[C@@]1(C)C2(C)C ), measured outcome is inactive

Value of outcome reported for the compound CCN(CC)C(=O)N(CC)CC is inactive

Input CC1CC(O)CC(C)(C)C1 (configuration not stated) . Output outcome: inactive

For this compound ( C=CC(C)(O)CCC=C(C)C (configuration not stated) ), measured outcome is inactive

# outcome of COc1ccc(CCN2CCC(Nc3nc4ccccc4n3Cc3ccc(F)cc3)CC2)cc1 = inactive

The recorded outcome for CC(=O)c1c(C)c([N+](=O)[O-])c(C(C)(C)C)c([N+](=O)[O-])c1C is inactive

The reported outcome of the compound CS(=O)(=O)c1ccc(C2=C(c3ccccc3)C(=O)OC2)cc1 was inactive

// Nc1ccc(N)c2c1C(=O)c1ccccc1C2=O : outcome value = inactive

Data point: CC(=O)Nc1ccc(C(=O)CCl)cc1 ; outcome = inactive

----------
target: Transcription factor Sp1 (Homo sapiens) (UniProt P08047); experiment: ATG_Sp1_CIS: Attagene CIS-FACTORIAL HepG2 Assay for human Specificity Protein 1 (Sp1) (AID 2282961); settings: HepG2 Sp1 cis-reporter transcription, actives raise or lower the signal
Sequence (P08047 whole entry, looked up): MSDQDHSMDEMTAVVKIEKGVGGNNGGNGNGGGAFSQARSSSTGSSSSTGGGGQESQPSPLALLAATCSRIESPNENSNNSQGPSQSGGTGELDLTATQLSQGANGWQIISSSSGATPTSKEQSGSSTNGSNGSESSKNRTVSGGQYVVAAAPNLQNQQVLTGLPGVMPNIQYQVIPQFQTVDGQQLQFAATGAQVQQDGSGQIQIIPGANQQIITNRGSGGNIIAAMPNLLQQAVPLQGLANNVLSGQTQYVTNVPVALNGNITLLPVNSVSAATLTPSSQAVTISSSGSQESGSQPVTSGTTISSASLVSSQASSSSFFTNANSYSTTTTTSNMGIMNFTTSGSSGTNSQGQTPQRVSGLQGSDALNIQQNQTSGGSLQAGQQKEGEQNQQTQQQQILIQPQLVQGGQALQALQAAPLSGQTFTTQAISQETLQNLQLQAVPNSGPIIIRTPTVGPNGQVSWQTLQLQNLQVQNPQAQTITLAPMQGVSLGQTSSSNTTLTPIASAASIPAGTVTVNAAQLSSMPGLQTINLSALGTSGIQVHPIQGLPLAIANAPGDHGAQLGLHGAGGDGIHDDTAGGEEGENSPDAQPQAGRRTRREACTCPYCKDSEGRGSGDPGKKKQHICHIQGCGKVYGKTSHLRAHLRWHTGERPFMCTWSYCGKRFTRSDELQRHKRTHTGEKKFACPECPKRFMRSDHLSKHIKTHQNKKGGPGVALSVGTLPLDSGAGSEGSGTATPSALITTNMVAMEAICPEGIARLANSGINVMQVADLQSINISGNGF
The source made the active and inactive calls. The calls were made as follows: active = hit-call score of the fitted dose curve at least 0.9, where 1 is the maximum; inactive = score below 0.9.
Response enum: active, inactive

The examples below pair each entry with its known result.
OCC#CCO	inactive
CC1CCC(C(C)C)C(O)C1 (stereo not drawn)	inactive
Clc1cc(Cl)c(-c2c(Cl)c(Cl)cc(Cl)c2Cl)cc1Cl	active

// next entry
Please indicate how the test categorized CCCCCCOC(=O)CCC .
inactive

----------
Read-out: E-selectin (Homo sapiens) (UniProt P16581)
Sequence (P16581 whole entry, looked up): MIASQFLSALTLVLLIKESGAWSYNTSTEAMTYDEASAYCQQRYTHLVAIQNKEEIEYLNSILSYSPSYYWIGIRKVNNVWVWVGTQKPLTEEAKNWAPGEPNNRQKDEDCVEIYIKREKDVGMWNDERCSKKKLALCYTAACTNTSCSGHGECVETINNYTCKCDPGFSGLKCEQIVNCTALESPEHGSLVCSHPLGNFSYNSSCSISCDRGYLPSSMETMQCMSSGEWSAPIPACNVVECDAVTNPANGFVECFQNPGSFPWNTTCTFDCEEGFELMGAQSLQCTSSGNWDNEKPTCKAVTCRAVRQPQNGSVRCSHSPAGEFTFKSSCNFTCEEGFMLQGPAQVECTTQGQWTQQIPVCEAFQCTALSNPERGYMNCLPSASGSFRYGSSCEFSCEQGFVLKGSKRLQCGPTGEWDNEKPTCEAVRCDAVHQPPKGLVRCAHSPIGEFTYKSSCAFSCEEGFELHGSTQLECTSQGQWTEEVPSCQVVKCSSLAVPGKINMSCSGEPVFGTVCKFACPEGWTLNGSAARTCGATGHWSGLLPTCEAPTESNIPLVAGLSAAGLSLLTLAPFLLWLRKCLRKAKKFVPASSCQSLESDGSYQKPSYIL
Assay: BSK_LPS_Eselectin: BioMAP Diversity Plus: LPS Assay for Eselectin Biomarker Activity (AID 2283077)
Conditions: primary human HUVEC with PBMC; actives raise or lower the signal
Protocol: BSK_LPS is a cell-based, multiplexed-readout assay that uses umbilical vein endothelium and peripheral blood mononuclear cells, a human vascular primary cell co-culture, with measurements taken at 24 hours after chemical dosing in a 96-well plate.BSK_LPS_Eselectin is an assay component measured in the BSK_LPS assay. It measures E-selectin antibody related to regulation of gene expression using ELISA technology.Data from the assay component BSK_LPS_Eselectin was analyzed into 1 assay endpoint. […]
Activity calls are given as the source filed them. Rule for the calls: active = hit-call score of the fitted dose curve at least 0.9, where 1 is the maximum; inactive = score below 0.9.
Result category, one only: TRUE for active, FALSE for inactive

Hello, I am checking results. What call was entered for C=C(C)[C@H]1CC=C(C)C(=O)C1 ?
FALSE

Test call for this compound, please: CC(C)(C)CC(C)(C)c1ccc(OCCOCC[N+](C)(C)Cc2ccccc2)cc1
TRUE

For CCCCN(CCCC)C(=O)N(CCCC)CCCC , which call appears in the assay record?
TRUE

Please state the recorded outcome for this compound: CCOC(=O)C(C#N)=C(c1ccccc1)c1ccccc1
FALSE

----------
biological target: Cellular tumor antigen p53 (Homo sapiens) (UniProt P04637); assay: TOX21_p53_BLA_p2_ratio: Tox21 HCT-116 p53 Agonism Beta-lactamase Assay, Ratio, Phase 2 (AID 2283592)
Sequence (P04637 whole entry, looked up): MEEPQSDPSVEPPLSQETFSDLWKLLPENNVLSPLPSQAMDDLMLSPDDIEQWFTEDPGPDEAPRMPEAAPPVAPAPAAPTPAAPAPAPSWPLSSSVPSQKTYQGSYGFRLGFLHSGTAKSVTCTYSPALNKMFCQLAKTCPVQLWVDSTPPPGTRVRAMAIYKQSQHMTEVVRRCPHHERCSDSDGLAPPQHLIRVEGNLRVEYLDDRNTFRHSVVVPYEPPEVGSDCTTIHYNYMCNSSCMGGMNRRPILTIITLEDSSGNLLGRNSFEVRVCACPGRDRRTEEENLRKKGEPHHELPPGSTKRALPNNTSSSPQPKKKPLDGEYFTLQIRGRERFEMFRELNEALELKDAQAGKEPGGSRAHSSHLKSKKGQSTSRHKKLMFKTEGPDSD
Results filed as inconclusive are left out. Active and inactive are the calls of the source. How the source made its calls: active means hit-call score of the fitted dose curve at least 0.9, where 1 is the maximum; inconclusive means response in the unintended direction; inactive means score below 0.9.
One label from this list, please: active, inactive

Below are worked cases with known answers.
IC(I)I	inactive
C=CCCC(=O)/C=C/C1C(C)=CCCC1(C)C (stereo not given)	inactive

Would you mind telling me which call this test gave CCOC(=O)C(C#N)=C(c1ccccc1)c1ccccc1 ?
inactive

Can you look up the reported call for CC(=O)O[C@@H]1CC2CCC1(C)C2(C)C (stereo not given in full) for me?
inactive

Field: outcome | Entry: CCOc1ccc(NC(=O)CC(C)O)cc1 (stereo not given)
inactive

Per the records of this test, what outcome belongs to C=C[Si]1(C)O[Si](C)(C=C)O[Si](C)(C=C)O[Si](C)(C=C)O1 (stereo not given) ?
inactive

Assay result, entry C/C=C(\C)C(=O)OCCc1ccccc1 — outcome?
inactive

Any idea what this test logged for CCOc1ccccc1O ?
inactive

----------
assay: ATG_NFI_CIS: Attagene CIS-FACTORIAL HepG2 Assay for human Nuclear Factor I (NFI) (AID 2282989); conditions: HepG2 cis-regulatory reporter, NFI response element transcription; actives raise or lower the signal
Active and inactive are the calls of the source. Rule for the calls: active = hit-call score of the fitted dose curve at least 0.9, where 1 is the maximum; inactive = score below 0.9.
Write down one outcome, taken from active, inactive

Worked examples, 6 compounds total:
Cc1ccc(-c2ccccc2)cc1	inactive
CC(=O)CC(=O)Nc1ccc(C)cc1C	inactive
CCc1ccc(O)c(OC)c1	inactive
CCCC1O[C@@H]2C[C@H]3[C@@H]4CCC5=CC(=O)C=C[C@]5(C)[C@H]4[C@@H](O)C[C@]3(C)[C@]2(C(=O)CO)O1 (stereo not given in full)	inactive
O=Cc1ccccc1S(=O)(=O)O	inactive
COCCc1ccc(OCC(O)CNC(C)C)cc1 (stereo not given)	inactive

# fetch the recorded call for Nc1ccc(Cl)c([N+](=O)[O-])c1 here
inactive

Give the logged outcome of this assay for the following compound: CN(C)c1cccc(O)c1
inactive

Please state the recorded outcome for this compound: C[Si]1(C)O[Si](C)(C)O[Si](C)(C)O1
inactive

Record lookup: outcome of this test for CCCOC(=O)c1c(Cl)c(Cl)c(Cl)c(Cl)c1C(=O)OCCC ?
active

Short answer needed: outcome of this test for CC=CC=CCOC(=O)C(C)C ?
inactive

Please indicate how the test categorized Oc1c(Cl)cc(Cl)c(Cl)c1Cc1c(O)c(Cl)cc(Cl)c1Cl .
inactive

Please let me know the test result on file for O=C(CC(=O)c1ccccc1)c1ccccc1 .
active

----------
assay: ATG_MRE_CIS: Attagene CIS-FACTORIAL HepG2 Assay for human Metal Responsive Element (MRE) (AID 2282954); conditions: HepG2 MRE cis-reporter transcription, Attagene multiplex; actives raise or lower the signal
Active and inactive are the calls of the source. How the source made its calls: active means hit-call score of the fitted dose curve at least 0.9, where 1 is the maximum; inactive means score below 0.9.
Respond with a class label; see class 1 for active, class 0 for inactive

# count of solved cases: 5
CC1C2CC(CC2C2CCCC(O)C2)C1(C)C (stereo unspecified)	class 0
Nc1ccccc1[N+](=O)[O-]	class 0
CC(C)(C)C1=CC(=O)C(C(C)(C)C)=CC1=O	class 1
O=C(Nc1ccc([N+](=O)[O-])cc1)Nc1ccc([N+](=O)[O-])cc1 (tested in a mixture with another compound)	class 0
Cc1ncc([N+](=O)[O-])n1CCO	class 0

Hi, sorry to bother you, what did the test record for C1CCCCC1 ?
class 0
